Listed next: entries and their corresponding pKi.
Biological target: GABA-A receptor; alpha-3/beta-3/gamma-2 (Homo sapiens, UniProt P18507+P28472+P34903)
Sequence (P18507 whole entry): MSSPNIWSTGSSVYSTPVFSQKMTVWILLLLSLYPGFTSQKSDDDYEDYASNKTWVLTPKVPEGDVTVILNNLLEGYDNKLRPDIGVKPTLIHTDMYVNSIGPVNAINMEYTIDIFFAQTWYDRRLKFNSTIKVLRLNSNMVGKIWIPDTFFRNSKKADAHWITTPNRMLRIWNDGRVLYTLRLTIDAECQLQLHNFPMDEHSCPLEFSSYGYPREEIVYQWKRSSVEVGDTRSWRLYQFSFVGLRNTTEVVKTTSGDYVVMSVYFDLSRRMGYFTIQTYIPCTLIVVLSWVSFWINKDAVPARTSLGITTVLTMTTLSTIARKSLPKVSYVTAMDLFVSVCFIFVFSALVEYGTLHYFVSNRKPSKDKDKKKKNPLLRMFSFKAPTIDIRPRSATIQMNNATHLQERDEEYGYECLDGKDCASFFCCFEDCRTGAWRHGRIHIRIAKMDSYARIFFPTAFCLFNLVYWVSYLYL
Sequence (P28472 whole entry): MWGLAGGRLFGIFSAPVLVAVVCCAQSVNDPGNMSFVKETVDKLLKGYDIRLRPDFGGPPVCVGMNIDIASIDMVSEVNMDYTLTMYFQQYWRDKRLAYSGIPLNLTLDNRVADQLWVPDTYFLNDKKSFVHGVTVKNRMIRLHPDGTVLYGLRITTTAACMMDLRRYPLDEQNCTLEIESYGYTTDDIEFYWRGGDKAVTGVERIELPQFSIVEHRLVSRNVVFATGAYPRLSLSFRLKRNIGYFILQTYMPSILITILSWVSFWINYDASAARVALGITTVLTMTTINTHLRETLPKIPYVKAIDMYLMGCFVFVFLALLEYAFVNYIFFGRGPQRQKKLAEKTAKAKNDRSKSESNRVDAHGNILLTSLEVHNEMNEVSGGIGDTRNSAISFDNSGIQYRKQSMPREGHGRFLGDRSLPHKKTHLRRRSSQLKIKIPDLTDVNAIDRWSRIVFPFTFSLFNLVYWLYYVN
Sequence (P34903 whole entry): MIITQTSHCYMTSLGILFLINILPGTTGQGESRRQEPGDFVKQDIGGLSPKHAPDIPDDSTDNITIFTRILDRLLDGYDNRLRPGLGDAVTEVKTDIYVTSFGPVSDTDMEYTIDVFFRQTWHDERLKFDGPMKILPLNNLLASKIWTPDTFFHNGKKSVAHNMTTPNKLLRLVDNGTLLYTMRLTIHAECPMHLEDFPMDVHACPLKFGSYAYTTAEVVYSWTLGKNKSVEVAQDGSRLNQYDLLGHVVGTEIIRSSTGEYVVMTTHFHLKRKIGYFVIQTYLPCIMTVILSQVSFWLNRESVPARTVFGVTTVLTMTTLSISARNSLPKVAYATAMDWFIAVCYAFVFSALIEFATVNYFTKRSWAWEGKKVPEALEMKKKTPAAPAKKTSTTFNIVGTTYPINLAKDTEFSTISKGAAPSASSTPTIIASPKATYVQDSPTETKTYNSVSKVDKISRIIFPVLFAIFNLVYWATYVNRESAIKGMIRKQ
Test: Binding affinity towards human gamma-aminobutyric-acid A receptor alpha-3-beta-3-gamma-2 using [3H]Ro-151788 expressed in L(tk-) cells
pKi: −log10 of the molar value.
assay.endpoint: pKi

{"molecule": "Cc1noc(-c2nnc3c4c(c(OCc5cccnc5)nn23)C2CCC4CC2)n1", "assay.endpoint": "pKi", "comparison.operator": "=", "readout.value": 8.38}
{"molecule": "Cc1noc(-c2nnc3c4c(c(OCc5ccc(C)c(C)n5)nn23)C2CCC4CC2)n1", "assay.endpoint": "pKi", "comparison.operator": "=", "readout.value": 8.07}
{"molecule": "Cc1cccc(COc2nn3c(-c4cc(C)on4)nnc3c3c2C2CCC3C2)n1 (stereo not given)", "assay.endpoint": "pKi", "comparison.operator": "=", "readout.value": 7.47}
{"molecule": "Cc1ccc(-c2nc3ccc(C)cn3c2CC(=O)N(C)C)cc1 [ZOLPIDEM]", "assay.endpoint": "pKi", "comparison.operator": "=", "readout.value": 6.22}
{"molecule": "Cc1cc(-c2nnc3c4c(c(OCc5ccccn5)nn23)CCCC4)no1", "assay.endpoint": "pKi", "comparison.operator": "=", "readout.value": 8.80}
{"molecule": "Cc1noc(-c2nnc3c4c(c(OCc5ccccc5C#N)nn23)C2CCC4CC2)n1", "assay.endpoint": "pKi", "comparison.operator": "=", "readout.value": 8.77}
{"molecule": "Cc1cc(-c2nnc3c4c(c(OCc5ccccn5)nn23)C2CCC4C2)no1 (stereo not given)", "assay.endpoint": "pKi", "comparison.operator": "=", "readout.value": 7.75}
{"molecule": "Cc1cccc(COc2nn3c(-c4csc(C)n4)nnc3c3c2C2CCC3CC2)n1", "assay.endpoint": "pKi", "comparison.operator": "<", "readout.value": 6.00}
{"molecule": "Cc1cccc(COc2nn3c(-c4nc(-c5cccnc5)no4)nnc3c3c2C2CCC3CC2)n1", "assay.endpoint": "pKi", "comparison.operator": "=", "readout.value": 7.16}
{"molecule": "Cc1cccc(COc2nn3c(-c4cccs4)nnc3c3c2C2CCC3CC2)n1", "assay.endpoint": "pKi", "comparison.operator": "=", "readout.value": 7.66}
